# credit: the pKa sets of Baltruschat and Czodrowski (2020)

- Conditions: basic group
We use 9 as the dividing line for pKa: on or above the line is 1.0, below is 0.0.

INSERT INTO results (molecule, category_label) VALUES
  ('c1cc(-c2ccoc2)ccn1', 0.0),
  ('CN1CC=CC1c1cccnc1 (configuration not stated)', 0.0),
  ('C[NH2+]CCN(C)CCN', 1.0),
  ('COc1cc(S(C)=O)ccc1-c1nc2ccnnc2[nH]1 (configuration not stated)', 0.0),
  ('CC1=C(CC(C)NCC(O)c2ccc(F)cc2)CCC1(C)C (configuration not stated)', 0.0),
  ('CCCCNCC(=O)c1ccc(O)cc1', 0.0),
  ('Cn1cnc2c(N=O)c(O)ccc21', 0.0),
  ('CC(C)(C)N1CCCC(=O)C(O)CCC1 (configuration not stated)', 0.0),
  ('OC(CN1CCOCC1)C[NH+]1CCOCC1', 0.0),
  ('Cc1ccccc1/C(=N/CCC[NH+](C)C)c1ccc2ccccc2c1', 0.0),
  ('Cc1ccc(O)c(CN(C)C)c1', 0.0),
  ('CC(O)CN(Cc1ccccc1)CC(C)O (configuration not stated)', 0.0),
  ('CCn1nnc(CC(=O)O)n1', 0.0),
  ('CN1CCC[NH+](C)Cc2ccccc2OCCOc2ccccc2C1', 0.0),
  ('C1CCN2C[C@@H]3C[C@@H](CN4CCCC[C@@H]34)[C@H]2C1', 1.0),
  ('CCCNC(C)C(=O)[O-] (configuration not stated)', 1.0),
  ('Cc1cc(N)ccc1C[NH3+]', 0.0),
  ('CC(N)C(=O)[O-] (configuration not stated)', 1.0),
  ('Cc1cc(C)c2nc(C)cc(N)c2c1', 1.0),
  ('CC[NH+](CC)CCN=C(c1ccccc1C)c1ccccc1C', 0.0),
  ('CN(C)CCSCC[NH+](C)C', 0.0),
  ('CC(C)CCN', 1.0),
  ('COc1ccc(C2CN2)cc1 (configuration not stated)', 0.0),
  ('CCOc1ccc2nccc([C@@H](O)[C@@H]3C[C@H]4CCN3C[C@@H]4CC)c2c1', 0.0),
  ('Nc1ccc(N)c(N)c1', 0.0),
  ('Nc1ccc2cc([N+](=O)[O-])ccc2c1', 0.0),
  ('CCCCNN', 0.0),
  ('c1ccc(CNC(CC2CCCCC2)CC2CCCCC2)cc1', 0.0),
  ('CCCCCC(C)N (configuration not stated)', 1.0),
  ('c1ccc(-c2ccccn2)nc1', 0.0),
  ('NCCCCc1ccncc1', 1.0),
  ('COc1cccc(CN(C)C)c1O', 0.0),
  ('Cc1cc(C)[n+](C)c([S-])n1', 0.0),
  ('CN1CCCC2CCN=C21 (configuration not stated)', 1.0),
  ('CN1C(C)(C)CCCC1(C)C', 1.0),
  ('Cc1cc([S-])nc([S-])n1', 1.0),
  ('Cc1cc([N+](=O)[O-])ccc1NN=C(C#N)C#N', 0.0),
  ('Nc1cc(Br)cc(Br)c1', 0.0),
  ('NCCOCCO', 1.0),
  ('CCNCC(=O)Nc1c(C)cccc1C', 0.0),
  ('Cc1ccc(NCO)cc1', 0.0),
  ('CC[C@@H]1C(=O)OC[C@@H]1Cc1cncn1C', 0.0),
  ('CCCCCCCCCCCCCCCCN(CCCCCCCCCCCCCCCC)C(=O)[C@H](C)NC(=O)[C@H](Cc1c[nH]cn1)NC(=O)CCCCC[N+](C)(C)C.[Br-]', 0.0),
  ('NCCCCC[NH3+]', 1.0),
  ('CCCCCCCCCCN(CC(C)O)CC(O)CC (configuration not stated)', 0.0),
  ('Clc1cccc(-c2ccccn2)n1', 0.0),
  ('CCCCC1CCCN1C (configuration not stated)', 1.0),
  ('C[n+]1c([O-])c([O-])nc2ccccc21', 1.0);

====

Each item that follows carries a reported pKa.
- Conditions: basic group
Test readout: pKa

INSERT INTO results (smiles_input, test_readout, measured) VALUES
  ('c1cncc(-c2nc3ccccc3[nH]2)c1', 'pKa', 4.53),
  ('[NH3+]CCc1c[nH]cn1', 'pKa', 6.08),
  ('C(=C/c1ccncc1)/c1ccncc1', 'pKa', 5.57),
  ('O=C1C[C@H]2OCC=C3CN4CC[C@@]56c7ccccc7N1[C@@H]5[C@@H]2[C@@H]3C[C@@H]46', 'pKa', 8.18),
  ('CCCCNCCC#N', 'pKa', 8.3),
  ('C#CC(C)(C)N(C)C(C)(C)C', 'pKa', 9.3);

====

- Conditions: basic group
Categories are assigned from the measured pKa using these intervals: interval 1: < 4; interval 2: ≥ 4 and < 6; interval 3: ≥ 6

INSERT INTO results (compound, category_label) VALUES
  ('CCN(CC)c1nc(N)nc(N(CC)CC)n1', 'interval 3'),
  ('CC1=NCCc2c1[nH]c1ccc([N+](=O)[O-])cc21', 'interval 3'),
  ('CCN(CC)CCOC(=O)c1ccccc1', 'interval 3'),
  ('C1CN2C(=N1)N1CCN=C1N1CCN=C21', 'interval 2'),
  ('CN(C)CC[N-]S(=O)(=O)c1cccc2c(N(C)C)cccc12', 'interval 3'),
  ('Nc1cc[nH+]c([S-])n1', 'interval 1'),
  ('Cc1cnncc1C', 'interval 2'),
  ('NCC(O)CN', 'interval 3'),
  ('CN1Cc2c(ccc3c2OCO3)-c2ccc3cc4c(cc3c21)OCO4', 'interval 1'),
  ('Oc1cccc2cnccc12', 'interval 2'),
  ('COCc1cccc(COC)n1', 'interval 1'),
  ('NCCCc1ccccc1O', 'interval 3'),
  ('CCc1cc(-c2ccccc2)nnc1NCC[NH+]1CCOCC1', 'interval 2'),
  ('[NH3+]C(CC(=O)[O-])c1ccccn1 (configuration not stated)', 'interval 1'),
  ('CCNc1ncnc2[nH]ncc12', 'interval 2'),
  ('C[NH2+]CC/C(N)=N/O', 'interval 1'),
  ('CCOC(=O)C(N)CC (configuration not stated)', 'interval 3'),
  ('Cc1c2ccccc2c(CN2CCOCC2)c2ccccc12', 'interval 3'),
  ('O=C(Cc1ccccn1)c1ccccc1', 'interval 2');

====

- Conditions: basic group
Test readout: pKa

INSERT INTO assay_data (molecule, test_readout, measured) VALUES
  ('CN1CCCCN1C', 'pKa', 6.66),
  ('Cc1cc(C(c2ccc(N)cc2)c2ccc([NH3+])cc2)ccc1[NH3+]', 'pKa', 2.6),
  ('c1ccc2cnccc2c1', 'pKa', 5.36),
  ('Nc1nc(C(F)(F)F)c2[nH]cnc2n1', 'pKa', 1.85),
  ('CS[C@H]1CCC[C@@H]1N(C)C', 'pKa', 8.85),
  ('Cc1c[nH]c(C)n1', 'pKa', 8.39),
  ('CCC/C=C1\CCCN1C', 'pKa', 11.9),
  ('CC(C)CNCC(=O)[O-]', 'pKa', 10.1),
  ('NCCC(=O)NC(Cc1c[nH]cn1)C(=O)[O-] (stereo not given)', 'pKa', 9.48),
  ('OCCCCCc1ccncc1', 'pKa', 6.04),
  ('Cc1cccc(C)n1', 'pKa', 6.85),
  ('C[C@H]1C[NH2+][C@@H](C)CN1', 'pKa', 5.23),
  ('NCCCc1ccccc1', 'pKa', 10.3),
  ('C[NH+](C)CCN', 'pKa', 6.63),
  ('COc1ccc2c3c1O[C@H]1CCC[C@H]4[C@H](NCC[C@]314)[C@H]2O', 'pKa', 8.72),
  ('CNc1nc(SC)nc2[nH]ncc12', 'pKa', 3.61),
  ('c1ccc(CNC23OC4C5C6CC(C7C6C4C72)C53)cc1 (stereo not given)', 'pKa', 7.07),
  ('N#CC(C#N)=NNc1c(Cl)cccc1Cl', 'pKa', -0.67),
  ('N[C@@H]1C[C@@H]1N', 'pKa', 9.04),
  ('CCCC(=O)OCCN(C)C', 'pKa', 8.31),
  ('CC[C@H]1CN2CC[C@@H]1C[C@H]2[C@H](O)c1ccnc2ccc(OC)cc12', 'pKa', 8.67),
  ('[O-]c1ccnc([O-])c1', 'pKa', 13),
  ('C1CNCCSCC[NH2+]C1', 'pKa', 3.23),
  ('c1ccc(C2=NSC(N3CCOCC3)=NS2)cc1', 'pKa', 8.33),
  ('NCCCCCc1cccnc1', 'pKa', 10.3),
  ('CCCCCCCP(=O)(CCCCCCC)NC1CCCCC1', 'pKa', 4.87),
  ('O=C(CN1CCCCC1)NCc1ccccc1', 'pKa', 7.71),
  ('COc1ccccc1C(=O)N[C@@H]1C[C@H]2CC[C@@H](C1)N2Cc1ccccc1', 'pKa', 8.88),
  ('CNCC(=O)NC', 'pKa', 8.28),
  ('C1CCN(CC[NH+]2CCCC2)C1', 'pKa', 6.3),
  ('CC/C=C/Cc1nc(C(=O)[O-])cn1[C@H](C(=O)[O-])C(C)(C)S', 'pKa', 6.4),
  ('C[NH2+]CCCNc1c2ccccc2nc2cccc([N+](=O)[O-])c12', 'pKa', 6.2),
  ('Cc1cccc(C)c1/C(=N/CCC[NH+](C)C)c1ccccc1', 'pKa', 3.83),
  ('NC[C@H]1CCCC[C@@H]1O', 'pKa', 10.2),
  ('Cc1cccc(Nc2ccccc2)c1', 'pKa', 0.92),
  ('Cc1cccc(Cl)c1/C(=N/CCC[NH+](C)C)c1ccccc1', 'pKa', 3.26),
  ('Cc1n[nH]c2c(NCc3ccco3)ncnc12', 'pKa', 4.84),
  ('CCCC1CCCN1C (stereo not given)', 'pKa', 9.78),
  ('COc1cc(Br)cc(C(=O)N[C@@H]2C[C@H]3CC[C@@H](C2)N3Cc2ccccc2)c1OC', 'pKa', 8.84),
  ('CCOC(=O)C1CN2CCC1CC2 (stereo not given)', 'pKa', 9.64),
  ('O=C(CCN1CCCCC1)c1ccccc1', 'pKa', 9.23),
  ('C#C[C@]1(O)C[C@H](C)N[C@@H]2CCCC[C@H]21', 'pKa', 9.63),
  ('O=C(NCCCN1CCOCC1)c1ccc(Cl)cc1', 'pKa', 6.81),
  ('CC(O)CN(C)CC(C)O (stereo not given)', 'pKa', 8.7),
  ('C#C[C@]1(O)C[C@@H](C)N[C@H]2CCCC[C@@H]21', 'pKa', 9.29);
